The values you see were collected from ChEMBL document CHEMBL1148935.

measuredTarget: Prostaglandin G/H synthase 1 (Ovis aries, UniProt P05979)
Sequence (P05979 whole entry): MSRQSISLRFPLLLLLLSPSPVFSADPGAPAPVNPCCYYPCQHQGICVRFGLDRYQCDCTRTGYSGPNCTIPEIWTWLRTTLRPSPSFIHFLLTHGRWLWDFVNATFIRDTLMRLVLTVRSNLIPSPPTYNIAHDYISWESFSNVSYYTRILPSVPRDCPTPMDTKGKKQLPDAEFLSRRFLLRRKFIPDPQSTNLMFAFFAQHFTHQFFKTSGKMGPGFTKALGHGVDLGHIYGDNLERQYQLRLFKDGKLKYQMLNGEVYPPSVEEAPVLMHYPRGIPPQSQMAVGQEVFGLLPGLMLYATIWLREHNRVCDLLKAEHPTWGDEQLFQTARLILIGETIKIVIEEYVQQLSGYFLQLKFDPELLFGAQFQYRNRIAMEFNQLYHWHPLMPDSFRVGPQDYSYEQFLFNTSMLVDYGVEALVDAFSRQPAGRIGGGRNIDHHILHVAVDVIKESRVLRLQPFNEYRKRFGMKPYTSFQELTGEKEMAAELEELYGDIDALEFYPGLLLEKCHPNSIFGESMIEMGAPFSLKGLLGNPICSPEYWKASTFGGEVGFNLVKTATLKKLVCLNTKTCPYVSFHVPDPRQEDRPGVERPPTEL
assayProtocol: Inhibition of cyclooxygenase activity of COX1 in sheep seminal vesicle in presence of 1 mM phenol by cyclooxygenase assay
Format: tissue-based
Field 'label' (enum: Y / N). Set to Y when IC50 is strictly under 20 µM; else N.

The examples below pair each entry with its known result.
compound	assignedLabel
Oc1cc(O)c2c(c1)O[C@@H](c1ccc(O)c(O)c1)[C@H](O)C2 [(-)-CATECHIN]	N
Oc1ccc(/C=C/c2cc(O)cc(O)c2)cc1	N
Oc1cc(O)c2c(c1)O[C@H](c1ccc(O)c(O)c1)[C@H](O)C2 [(-)-EPICATECHIN]	Y
Oc1cc(O)c2c(c1)O[C@@H](c1ccc(O)c(O)c1)[C@@H](O)C2 [(+)-EPICATECHIN]	Y

# ---- query compound ----
Query: Does the reported IC50 of Oc1cccc(O)c1 stay below 20 µM?
Reply: N
